Test system: L1210 leukemia ip in BDF1 mice, survival T/C
Assay: NCI In Vivo Anticancer Drug Screen. Data for tumor model L1210 Leukemia (intraperitoneal) in B6D2F1 (BDF1) mice
Settings: endpoint: mean survival time; dose: 100.0 mg/kg/injection; schedule: Q04DX003 (ip); vehicle: saline; higher = longer survival
Toxic doses and inconclusive results are not listed.
endpoint.name: T/C

O=[N+]([O-])c1ccc(/C=N/N2CCOCC2)s1: 102 % of control
Cn1nnc(N)n1: 102 % of control
OC(c1ccccc1)(c1ccccc1)C1CCCCC1=C(c1ccccc1)c1ccccc1 (stereo not drawn): 96 % of control
CC(C)/C([O-])=N\[N+](C)(C)Cc1ccccc1: 105 % of control
CN(C)C(=O)/N=N/C(=O)N(C)C: 102 % of control

Which T/C value is on record for CCN(CC)CCOB(OCCN(CC)CC)OCCN(CC)CC ? 96 % of control

Another molecule to check: NNC(=O)CO 101 % of control

Another molecule to check: O=C1CSC(=O)N1c1ccccc1 93 % of control

Another molecule to check: N#CCCNCCC#N 102 % of control

----------
Tested on: L1210 leukemia ip in BDF1 mice, survival T/C
Assay: NCI In Vivo Anticancer Drug Screen. Data for tumor model L1210 Leukemia (intraperitoneal) in B6D2F1 (BDF1) mice
Conditions: endpoint: mean survival time; dose: 200.0 mg/kg/injection; schedule: Q01DX009 (ip); vehicle: saline with Tween-80; higher = longer survival
Inconclusive results and toxic doses are left out.
# reported T/C; entries follow

Illustrative cases are given below, each with its answer.
O=C(Nc1ccccc1O)/C(Cl)=C/Cl: 102 % of control
COC1(c2ccc(C(F)(F)F)cc2)OC1(C)C (configuration not stated): 100 % of control

Hello, I am looking for reported T/C with L1210 leukemia ip in BDF1 mice, survival T/C for O=c1cc(Cl)c2ccccc2[nH]1 . Could you help? 91 % of control

----------
Test system: L1210 leukemia ip in BDF1 mice, survival T/C
Test: NCI In Vivo Anticancer Drug Screen. Data for tumor model L1210 Leukemia (intraperitoneal) in B6D2F1 (BDF1) mice
Settings: endpoint: mean survival time; dose: 50.0 mg/kg/injection; schedule: Q01DX009 (ip); vehicle: saline
Inconclusive results and toxic doses are left out. No stated cut-off is given here; in the data, active means T/C of 150% or more; inactive means T/C below 125%.
Return exactly one item of class 1 = active, class 0 = inactive

Study these solved cases before continuing.
CCCCCC(CN(C)C)C(O)/C=C/c1ccccc1Cl (stereo unspecified): class 0
Nc1nc(=S)nc(N)[nH]1: class 0
CC1C[N-]1.CC1C[N-]1.[Cl][Pt+2][Cl] (stereo unspecified): class 0

# fetch the recorded call for Nc1nc([Se])c2ncn(C3CC(O)C(CO)O3)c2n1 (stereo unspecified) here class 1

Another compound to check: C#CC[N+](CC#C)(CC#C)CC#C class 0

Another compound to check: O=[N+]([O-])c1cccc(O)c1 class 0

----------
# reported T/C; entries follow
Tested on: L1210 leukemia ip in BDF1 mice, survival T/C
Assay: NCI In Vivo Anticancer Drug Screen. Data for tumor model L1210 Leukemia (intraperitoneal) in B6D2F1 (BDF1) mice
Settings: endpoint: mean survival time; dose: 400.0 mg/kg/injection; schedule: Q01DX001 (ip); vehicle: saline; higher = longer survival
Inconclusive results and toxic doses are left out.

O=C(O)C(O)Cc1ccc(O)cc1 (configuration not stated): 97 % of control
CC(CCc1ccc2sc3ccccc3c2c1)C(N)=O (configuration not stated): 94 % of control

Which T/C value is on record for CN(Cc1c(S)ccc2ccccc12)Cc1c(S)ccc2ccccc12 ? 96 % of control

Another compound to check: Cc1cccc2c1SCCC2=O 89 % of control

----------
Test system: L1210 leukemia ip in BDF1 mice, survival T/C
Experiment: NCI In Vivo Anticancer Drug Screen. Data for tumor model L1210 Leukemia (intraperitoneal) in B6D2F1 (BDF1) mice
Conditions: endpoint: mean survival time; dose: 400.0 mg/kg/injection; schedule: Q01DX009 (ip); vehicle: Klucel (hydroxypropylcellulose) (HPC); higher = longer survival
Toxic doses and inconclusive results are not listed.
endpoint.name: T/C

Illustrative cases are given below, each with its answer.
Cc1cc(C)n(C(N)=O)n1: 110 % of control
NCCOS(=O)(=O)O: 100 % of control
CC(=O)c1ccc(CC23CC4CC(CC(C4)C2)C3)cc1: 94 % of control

Which T/C value is on record for O=C1C2C(C(=O)N1c1ccc(Br)cc1)C1(Cl)C(Cl)=C(Cl)C2(Cl)C1(Cl)Cl (configuration not stated) ? 96 % of control

----------
# reported T/C; entries follow
Test system: L1210 leukemia ip in BDF1 mice, survival T/C
Assay: NCI In Vivo Anticancer Drug Screen. Data for tumor model L1210 Leukemia (intraperitoneal) in B6D2F1 (BDF1) mice
Details: endpoint: mean survival time; dose: 200.0 mg/kg/injection; schedule: Q04DX002 (ip); vehicle: Klucel (hydroxypropylcellulose) (HPC); higher = longer survival
Inconclusive results and toxic doses are left out.

Illustrative cases are given below, each with its answer.
O=C(Nc1ccccc1F)Oc1ccc(Cl)cc1Cl: 102 % of control
ClC1(Cl)C2(c3ccccc3)OC(c3ccccc3)(c3ccccc32)C1(Cl)Cl: 97 % of control
CC(C)(C)S(=O)(=O)CCS(=O)(=O)C(C)(C)C: 97 % of control
CC(=O)N(Cl)c1ccc(Cl)cc1Cl: 98 % of control
Cc1ccc(CNC(=O)Nc2c(C)cccc2C)cc1C: 108 % of control

Which T/C value is on record for COc1ccc(/C=N\NC(=O)c2ccncc2)cc1 ? 106 % of control

Another compound to check: O=C(OCc1ccccc1CN1CCCC1)c1ccc(Br)cc1 90 % of control

Another compound to check: O=C(O)C1C(c2ccccc2)CC(=O)N1c1ccc(Cl)cc1 (configuration not stated) 91 % of control

Another compound to check: COc1ccc(N2C=C(c3ccccc3)CC2=O)cc1 94 % of control

Another compound to check: COC(=O)c1ccccc1-n1cnc2ccccc2c1=O 101 % of control

Another compound to check: O=S(=O)(O)c1cc(I)c(O)c2ncccc12 95 % of control

Another compound to check: COc1cccc(CCC(=O)c2ccccc2)c1 90 % of control

----------
# reported T/C; entries follow
Tested on: L1210 leukemia ip in BDF1 mice, survival T/C
Assay: NCI In Vivo Anticancer Drug Screen. Data for tumor model L1210 Leukemia (intraperitoneal) in B6D2F1 (BDF1) mice
Settings: endpoint: mean survival time; dose: 50.0 mg/kg/injection; schedule: Q01DX001 (ip); vehicle: other; higher = longer survival
Toxic doses and inconclusive results are not listed.

Illustrative cases are given below, each with its answer.
Cn1c(N)c(N=Cc2ccncc2)c(=O)n(C)c1=O: 103 % of control
O=C(Nc1ccccc1)NC(C(=O)O)(c1ccccc1)c1ccccc1: 97 % of control
CCCN(CCC)NC(=O)c1ccc(N=NN(C)C)cc1: 98 % of control

Which T/C value is on record for CCOP(=S)(S)OCC.[Cr] ? 98 % of control

Another compound to check: CN(C)c1ccc(/C=C/C=N/Nc2nnc(N/N=C/C=C/c3ccc(N(C)C)cc3)c3ccccc23)cc1 109 % of control

----------
Tested on: L1210 leukemia ip in BDF1 mice, survival T/C
Assay: NCI In Vivo Anticancer Drug Screen. Data for tumor model L1210 Leukemia (intraperitoneal) in B6D2F1 (BDF1) mice
Conditions: endpoint: mean survival time; dose: 50.0 mg/kg/injection; schedule: Q01DX009 (ip); vehicle: Klucel (hydroxypropylcellulose) (HPC); higher = longer survival
Inconclusive results and toxic doses are left out.
# reported T/C; entries follow

N#Cc1c(N)ncc2c1CCCC2: 102 % of control

Hello, I am looking for reported T/C with L1210 leukemia ip in BDF1 mice, survival T/C for CN(C)C(=O)C(OCc1ccccc1)C(OCc1ccccc1)C(OCc1ccccc1)C(O)COCc1ccccc1 (stereo unspecified) . Could you help? 88 % of control

Another compound to check: Cc1cccc(CN2CCN(C(c3ccccc3)c3ccc(Cl)cc3)CC2)c1 (stereo unspecified) 100 % of control

Another compound to check: COC(=O)C(CCC(=O)O)NC(=O)OCc1ccccc1 (stereo unspecified) 97 % of control

Another compound to check: O=C(Nc1cc([N+](=O)[O-])ccc1Cl)N(Cc1ccccc1)c1ccccc1 89 % of control

Another compound to check: Cc1cc2c(-c3ccccc3)nc3ccccc3n2c1Cl 92 % of control

----------
Tested on: L1210 leukemia ip in BDF1 mice, survival T/C
Test: NCI In Vivo Anticancer Drug Screen. Data for tumor model L1210 Leukemia (intraperitoneal) in B6D2F1 (BDF1) mice
Settings: endpoint: mean survival time; dose: 12.5 mg/kg/injection; schedule: Q04DX003 (ip); vehicle: saline; higher = longer survival
Inconclusive results and toxic doses are left out.
endpoint.name: T/C

Illustrative cases are given below, each with its answer.
CCCCCCCCCCCC(=O)[O][Sn]([CH2]C)([CH2]C)[O]C(=O)CCCCCCCCCCC: 105 % of control
O[C@H](c1cc(C(F)(F)F)nc2c(C(F)(F)F)cccc12)[C@@H]1CCCCN1: 98 % of control
O=[N+]([O-])c1ccc2c(c1)N(CCCN1CCN(CCO)CC1)c1ccccc1S2: 111 % of control

Which T/C value is on record for C/C(=N\[N+](C)(C)C)c1ccc(Br)cc1 ? 109 % of control

Another molecule to check: N=C(N)c1ccc(-n2nc3ccc(C(=N)N)cc3n2)cc1 100 % of control

Another molecule to check: CCN(CC)CCC(=O)c1cccc2c1OC(C)(C)C2 103 % of control
